Test: Metabolic stability in BALB/c mouse liver microsomes assessed as parent compound remaining measured after 40 mins
Type: ADME, Microsome
Conditions: read-out: Stability
MEASURED PROPERTY: remaining at 40 min (%)
The answer is to be given in %; state only the numeric part.

// query What remaining at 40 min value was documented for this molecule, `CC(C)N(C[C@H]1C[C@@H](c2ccc3c(N)ncnn23)[C@H](O)[C@@H]1O)[C@H]1C[C@@H](CCc2nc3cc(C(C)(C)C)ccc3[nH]2)C1` ?
// result 41

---

In this section, each of the compounds is paired with its reported Cmax.
Assay: Cmax in fasted BALB/c mouse at 5 mg/kg, iv administered upto 600 mins by HPLC-MS/MS analysis
Type: ADME, organism-based
Set-up: time < 600 min, dose 5 mg/kg, route iv
Conditions: in vivo
The answer is to be given in µg/mL; state only the numeric part.

- CC(C)N(C[C@H]1O[C@@H](n2cnc3c(N)ncnc32)[C@H](O)[C@@H]1O)[C@H]1C[C@@H](CCc2nc3cc(C(C)(C)C)ccc3[nH]2)C1 [PINOMETOSTAT]: 13.9

Next up:
// query What Cmax value was documented for this compound, `CC(C)N(C[C@H]1C[C@@H](c2ccc3c(N)ncnn23)[C@H](O)[C@@H]1O)[C@H]1C[C@@H](CCc2nc3cc(C(C)(C)C)ccc3[nH]2)C1` ?
// result 20.6

---

Assay: Elimination rate constant in fasted BALB/c mouse at 5 mg/kg, iv administered upto 600 mins by HPLC-MS/MS analysis
Assay type: ADME, organism-based
Details: BALB/c, in vivo
MEASURED PROPERTY: k el at 10 h (s⁻¹)
The answer is to be given in s⁻¹; state only the numeric part.

// query What k el at 10 h value was documented for this molecule, `CC(C)N(C[C@H]1C[C@@H](c2ccc3c(N)ncnn23)[C@H](O)[C@@H]1O)[C@H]1C[C@@H](CCc2nc3cc(C(C)(C)C)ccc3[nH]2)C1` ?
// result 0.000202

---

Assay: Microsomal stability in BALB/c mouse liver microsomes assessed as intrinsic clearance
Format: ADME, Microsome
Details: read-out: CLH
MEASURED PROPERTY: microsomal CLint (µL/min/mg)
The answer is to be given in µL/min/mg; state only the numeric part.

// query What microsomal CLint value was documented for this molecule, `CC(C)N(C[C@H]1C[C@@H](c2ccc3c(N)ncnn23)[C@H](O)[C@@H]1O)[C@H]1C[C@@H](CCc2nc3cc(C(C)(C)C)ccc3[nH]2)C1` ?
// result 56

---

In this section, each of the compounds is paired with its reported Tmax.
Test: Tmax in fasted BALB/c mouse at 5 mg/kg, iv administered upto 600 mins by HPLC-MS/MS analysis
Assay type: ADME, organism-based
Details: in vivo
The answer is to be given in min; state only the numeric part.

* CC(C)N(C[C@H]1O[C@@H](n2cnc3c(N)ncnc32)[C@H](O)[C@@H]1O)[C@H]1C[C@@H](CCc2nc3cc(C(C)(C)C)ccc3[nH]2)C1 [PINOMETOSTAT] | 5

Next up:
// query What Tmax value was documented for this compound, `CC(C)N(C[C@H]1C[C@@H](c2ccc3c(N)ncnn23)[C@H](O)[C@@H]1O)[C@H]1C[C@@H](CCc2nc3cc(C(C)(C)C)ccc3[nH]2)C1` ?
// result 5

---

Assay: Half life in fasted BALB/c mouse at 20 mg/kg, po administered upto 600 mins by HPLC-MS/MS analysis
Type: ADME, organism-based
Conditions: in vivo
MEASURED PROPERTY: half-life (min)
The answer is to be given in min; state only the numeric part.

- CN(CCCNC(=O)Nc1ccc(C(C)(C)C)cc1)C[C@H]1C[C@@H](c2ccc3c(N)ncnn23)[C@H](O)[C@@H]1O (stereo in doubt; (-)-25): 6.78
- CC(C)NC[C@H]1C[C@@H](c2ccc3c(N)ncnn23)[C@H](O)[C@@H]1O: 44.9

Next up:
// query What half-life value was documented for this compound, `CC(C)NC[C@@H]1C[C@H](c2ccc3c(N)ncnn23)[C@@H](O)[C@H]1O` ?
// result 25.3

---

In this section, each of the compounds is paired with its reported k el at 10 h.
Experiment: Elimination rate constant in fasted BALB/c mouse at 20 mg/kg, po administered upto 600 mins by HPLC-MS/MS analysis
Type: ADME, organism-based
Settings: in vivo
The answer is to be given in s⁻¹; state only the numeric part.

// query What k el at 10 h value was documented for this compound, `CC(C)NC[C@H]1C[C@@H](c2ccc3c(N)ncnn23)[C@H](O)[C@@H]1O` ?
// result 0.000257

// query What k el at 10 h value was documented for this compound, `CC(C)NC[C@@H]1C[C@H](c2ccc3c(N)ncnn23)[C@@H](O)[C@H]1O` ?
// result 0.000457

// query What k el at 10 h value was documented for this compound, CN(CCCNC(=O)Nc1ccc(C(C)(C)C)cc1)C[C@H]1C[C@@H](c2ccc3c(N)ncnn23)[C@H](O)[C@@H]1O (stereo in doubt; (-)-25) ?
// result 0.0017

---

Experiment: AUC (0 to t) in fasted BALB/c mouse at 20 mg/kg, po administered upto 600 mins by HPLC-MS/MS analysis
Assay type: ADME, organism-based
Parameters: dose 20 mg/kg, time < 600 min, route po
Conditions: in vivo
MEASURED PROPERTY: AUC(0-t) at 10 h (ng·h/mL)
The answer is to be given in ng·h/mL; state only the numeric part.

Consider the reported AUC(0-t) at 10 h for these compounds:
• CN(CCCNC(=O)Nc1ccc(C(C)(C)C)cc1)C[C@H]1C[C@@H](c2ccc3c(N)ncnn23)[C@H](O)[C@@H]1O (stereo in doubt; (-)-25) = 8.07
• CC(C)NC[C@H]1C[C@@H](c2ccc3c(N)ncnn23)[C@H](O)[C@@H]1O = 1200
• CC(C)NC[C@@H]1C[C@H](c2ccc3c(N)ncnn23)[C@@H](O)[C@H]1O = 830

Next up:
// query What AUC(0-t) at 10 h value was documented for this compound, `CC(C)N(C[C@H]1O[C@@H](n2cnc3c(N)ncnc32)[C@H](O)[C@@H]1O)[C@H]1C[C@@H](CCc2nc3cc(C(C)(C)C)ccc3[nH]2)C1` ?
// result 0.662

---

Assay: Elimination rate constant in fasted BALB/c mouse at 20 mg/kg, iv administered upto 600 mins by HPLC-MS/MS analysis
Format: ADME, organism-based
Details: in vivo
MEASURED PROPERTY: k el at 10 h (s⁻¹)
The answer is to be given in s⁻¹; state only the numeric part.

- CN(CCCNC(=O)Nc1ccc(C(C)(C)C)cc1)C[C@H]1C[C@@H](c2ccc3c(N)ncnn23)[C@H](O)[C@@H]1O (stereo in doubt; (-)-25): 9.82e-05

// query What k el at 10 h value was documented for this molecule, `CC(C)NC[C@H]1C[C@@H](c2ccc3c(N)ncnn23)[C@H](O)[C@@H]1O` ?
// result 0.0001

// query What k el at 10 h value was documented for this molecule, `CC(C)N(C[C@H]1C[C@@H](c2ccc3c(N)ncnn23)[C@H](O)[C@@H]1O)[C@H]1C[C@@H](CCc2nc3cc(C(C)(C)C)ccc3[nH]2)C1` ?
// result 0.000123

// query What k el at 10 h value was documented for this molecule, `CC(C)NC[C@@H]1C[C@H](c2ccc3c(N)ncnn23)[C@@H](O)[C@H]1O` ?
// result 0.000173

---

Assay: Cmax in fasted BALB/c mouse at 20 mg/kg, po administered upto 600 mins by HPLC-MS/MS analysis
Type: ADME, organism-based
Design: time < 600 min, dose 20 mg/kg, route po
Conditions: in vivo
MEASURED PROPERTY: Cmax

Consider the reported Cmax for these compounds:
- CC(C)NC[C@@H]1C[C@H](c2ccc3c(N)ncnn23)[C@@H](O)[C@H]1O: 645 ng/mL
- CC(C)NC[C@H]1C[C@@H](c2ccc3c(N)ncnn23)[C@H](O)[C@@H]1O: 561 ng/mL
- CC(C)N(C[C@H]1O[C@@H](n2cnc3c(N)ncnc32)[C@H](O)[C@@H]1O)[C@H]1C[C@@H](CCc2nc3cc(C(C)(C)C)ccc3[nH]2)C1: 15.9 ng/mL

Next up:
// query What Cmax value was documented for this compound, CN(CCCNC(=O)Nc1ccc(C(C)(C)C)cc1)C[C@H]1C[C@@H](c2ccc3c(N)ncnn23)[C@H](O)[C@@H]1O (stereo in doubt; (-)-25) ?
// result 36.4 ng/mL

---

Assay: AUC (0 to infinity) in fasted BALB/c mouse at 20 mg/kg, po administered upto 600 mins by HPLC-MS/MS analysis
Assay type: ADME, organism-based
Design: dose 20 mg/kg, time < 600 min, route po
Conditions: in vivo
MEASURED PROPERTY: AUC(0-inf) (µg·h/mL)
The answer is to be given in µg·h/mL; state only the numeric part.

Consider the reported AUC(0-inf) for these compounds:
* CC(C)NC[C@H]1C[C@@H](c2ccc3c(N)ncnn23)[C@H](O)[C@@H]1O | 1.3
* CN(CCCNC(=O)Nc1ccc(C(C)(C)C)cc1)C[C@H]1C[C@@H](c2ccc3c(N)ncnn23)[C@H](O)[C@@H]1O (stereo in doubt; (-)-25) | 0.00853

Next up:
// query What AUC(0-inf) value was documented for this compound, `CC(C)NC[C@@H]1C[C@H](c2ccc3c(N)ncnn23)[C@@H](O)[C@H]1O` ?
// result 0.845
